molecular target: Insulin-like growth factor 1 receptor (Homo sapiens, UniProt P08069); test: Inhibition of recombinant IGF1R phosphorylation transfected in mouse embryonic fibroblast
Sequence (P08069 31-736 limits assumed): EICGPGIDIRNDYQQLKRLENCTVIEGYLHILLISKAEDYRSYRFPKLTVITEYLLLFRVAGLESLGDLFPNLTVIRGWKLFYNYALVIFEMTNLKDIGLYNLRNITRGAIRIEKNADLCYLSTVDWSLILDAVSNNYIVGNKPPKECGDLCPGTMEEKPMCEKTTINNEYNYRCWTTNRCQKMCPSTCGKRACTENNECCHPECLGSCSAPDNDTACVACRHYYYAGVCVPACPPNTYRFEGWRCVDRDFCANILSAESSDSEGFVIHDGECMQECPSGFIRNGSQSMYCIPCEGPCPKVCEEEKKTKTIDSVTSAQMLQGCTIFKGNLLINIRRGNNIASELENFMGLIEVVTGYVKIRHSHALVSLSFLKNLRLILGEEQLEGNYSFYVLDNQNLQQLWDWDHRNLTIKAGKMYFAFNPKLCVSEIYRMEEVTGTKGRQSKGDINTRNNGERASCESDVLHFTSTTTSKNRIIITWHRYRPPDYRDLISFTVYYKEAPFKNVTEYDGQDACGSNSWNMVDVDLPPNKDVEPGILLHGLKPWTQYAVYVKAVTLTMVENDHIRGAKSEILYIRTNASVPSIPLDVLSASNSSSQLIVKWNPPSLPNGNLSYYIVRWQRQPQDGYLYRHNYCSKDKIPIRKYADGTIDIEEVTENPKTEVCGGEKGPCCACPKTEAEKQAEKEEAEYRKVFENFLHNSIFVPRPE
Sequence (P08069 741-1367 limits assumed): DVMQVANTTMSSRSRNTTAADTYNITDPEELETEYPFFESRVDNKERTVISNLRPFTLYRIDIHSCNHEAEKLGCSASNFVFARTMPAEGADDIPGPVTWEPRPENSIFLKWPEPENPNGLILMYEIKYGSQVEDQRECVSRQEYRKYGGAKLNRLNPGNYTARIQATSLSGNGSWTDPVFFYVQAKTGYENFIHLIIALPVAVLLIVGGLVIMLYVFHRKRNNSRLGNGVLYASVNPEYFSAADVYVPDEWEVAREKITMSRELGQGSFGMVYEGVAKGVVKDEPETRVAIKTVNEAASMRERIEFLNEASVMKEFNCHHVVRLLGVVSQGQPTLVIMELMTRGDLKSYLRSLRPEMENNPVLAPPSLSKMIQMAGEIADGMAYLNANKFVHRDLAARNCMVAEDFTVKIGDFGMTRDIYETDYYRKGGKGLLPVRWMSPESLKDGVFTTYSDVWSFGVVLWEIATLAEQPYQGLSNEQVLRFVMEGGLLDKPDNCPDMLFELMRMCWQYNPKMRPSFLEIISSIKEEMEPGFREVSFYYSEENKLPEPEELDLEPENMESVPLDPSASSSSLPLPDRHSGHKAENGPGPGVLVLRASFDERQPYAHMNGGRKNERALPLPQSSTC
Value type: pIC50
Reminder that pIC50 is minus the log10 of a molar concentration.

// query Fill in the blank: the reported pIC50 of Cc1cc(O)cc2oc(=O)c3c(O)cc(O)cc3c12 [ALTERNARIOL] is ____.
// result 5.41

----------
target: Vascular endothelial growth factor receptor 2 (Homo sapiens); experiment: Inhibition of recombinant VEGFR2
Sequence (P35968 whole entry): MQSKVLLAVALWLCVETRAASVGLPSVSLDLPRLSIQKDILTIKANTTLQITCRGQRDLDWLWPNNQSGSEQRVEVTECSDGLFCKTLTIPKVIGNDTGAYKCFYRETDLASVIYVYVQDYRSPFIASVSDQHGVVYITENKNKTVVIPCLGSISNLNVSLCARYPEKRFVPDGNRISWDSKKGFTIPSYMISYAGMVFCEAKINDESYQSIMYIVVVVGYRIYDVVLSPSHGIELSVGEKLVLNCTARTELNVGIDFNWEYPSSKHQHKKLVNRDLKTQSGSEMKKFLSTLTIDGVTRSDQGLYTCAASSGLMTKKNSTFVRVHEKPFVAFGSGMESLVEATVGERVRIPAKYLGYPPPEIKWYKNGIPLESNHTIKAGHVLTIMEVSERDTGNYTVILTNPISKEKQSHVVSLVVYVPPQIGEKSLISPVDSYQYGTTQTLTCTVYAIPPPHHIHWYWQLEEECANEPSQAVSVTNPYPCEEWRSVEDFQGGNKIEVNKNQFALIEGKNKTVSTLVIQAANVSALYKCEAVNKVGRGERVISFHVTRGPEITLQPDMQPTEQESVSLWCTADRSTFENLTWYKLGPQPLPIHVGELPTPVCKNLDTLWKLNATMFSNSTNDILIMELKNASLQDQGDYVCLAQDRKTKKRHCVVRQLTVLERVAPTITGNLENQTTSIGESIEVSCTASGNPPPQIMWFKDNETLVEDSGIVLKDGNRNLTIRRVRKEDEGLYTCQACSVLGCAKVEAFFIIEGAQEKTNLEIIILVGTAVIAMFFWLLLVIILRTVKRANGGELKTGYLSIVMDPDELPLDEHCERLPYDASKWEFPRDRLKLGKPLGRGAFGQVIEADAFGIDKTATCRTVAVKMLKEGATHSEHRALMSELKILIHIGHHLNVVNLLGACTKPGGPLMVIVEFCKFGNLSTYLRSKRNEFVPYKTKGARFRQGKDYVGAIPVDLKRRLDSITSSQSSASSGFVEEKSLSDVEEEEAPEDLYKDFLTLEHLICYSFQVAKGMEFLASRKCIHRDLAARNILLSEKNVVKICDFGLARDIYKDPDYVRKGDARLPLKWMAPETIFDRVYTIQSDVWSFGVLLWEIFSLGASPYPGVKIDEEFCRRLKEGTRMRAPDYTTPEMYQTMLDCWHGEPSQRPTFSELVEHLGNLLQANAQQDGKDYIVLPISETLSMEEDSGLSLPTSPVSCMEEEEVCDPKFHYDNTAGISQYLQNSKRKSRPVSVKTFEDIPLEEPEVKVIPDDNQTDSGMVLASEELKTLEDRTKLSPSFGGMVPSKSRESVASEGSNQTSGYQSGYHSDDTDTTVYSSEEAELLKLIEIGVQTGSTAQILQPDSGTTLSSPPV
Value type: IC50 (×10⁻⁷ g/ml)
Please reply with the bare figure in ×10⁻⁷ g/ml and do not write the unit itself.

As a guide, the following entries are already answered.
In [3]: df
Out[3]:
                              record_smiles  measured_number
0  Cc1cc(O)cc2oc(=O)c3c(O)cc(OS(=O)(=O)O)cc3c12                7
1        Cc1cc(O)cc2oc(=O)c3c(O)cc(O)cc3c12              9.2

// query Fill in the blank: the reported IC50 of COc1cc(O)c2c(=O)oc3c(O)c(O)cc(C)c3c2c1 is ____.
// result 6.4

----------
# IC50 annotations
target: Cyclin-dependent kinase 4/cyclin D1 (Homo sapiens); assay: Inhibition of recombinant CDK4/CycD1
Sequence (P11802 whole entry): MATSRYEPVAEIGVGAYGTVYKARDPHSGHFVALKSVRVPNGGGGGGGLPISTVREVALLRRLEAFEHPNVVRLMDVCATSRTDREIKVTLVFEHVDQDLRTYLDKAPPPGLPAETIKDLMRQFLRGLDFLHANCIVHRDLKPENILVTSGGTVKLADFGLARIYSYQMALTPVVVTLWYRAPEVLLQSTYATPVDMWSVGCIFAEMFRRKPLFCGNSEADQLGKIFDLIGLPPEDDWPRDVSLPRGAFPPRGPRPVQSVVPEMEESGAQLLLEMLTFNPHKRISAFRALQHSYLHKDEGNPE
Sequence (P24385 whole entry, further chain): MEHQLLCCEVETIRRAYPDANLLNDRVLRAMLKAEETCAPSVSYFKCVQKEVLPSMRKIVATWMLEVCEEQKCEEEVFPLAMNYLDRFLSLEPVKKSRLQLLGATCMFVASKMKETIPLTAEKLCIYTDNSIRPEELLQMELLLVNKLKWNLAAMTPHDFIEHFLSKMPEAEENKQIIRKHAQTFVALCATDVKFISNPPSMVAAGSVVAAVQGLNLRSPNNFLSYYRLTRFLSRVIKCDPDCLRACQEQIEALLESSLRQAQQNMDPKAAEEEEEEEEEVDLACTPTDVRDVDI
Please reply with the bare figure in µM and do not write the unit itself.

// query Fill in the blank: the reported IC50 of COc1cc(O)c2c(=O)oc3c(O)c(O)cc(C)c3c2c1 is ____.
// result 5.9

// query Fill in the blank: the reported IC50 of Cc1cc(O)cc2oc(=O)c3c(O)cc(OS(=O)(=O)O)cc3c12 is ____.
// result 7.98

// query Fill in the blank: the reported IC50 of Cc1cc(O)c(O)cc1-c1cc(O)cc(O)c1C(=O)O is ____.
// result 15.9

// query Fill in the blank: the reported IC50 of Cc1cc(O)cc2oc(=O)c3c(O)cc(O)cc3c12 is ____.
// result 9.29

// query Fill in the blank: the reported IC50 of COc1cc(O)c(C(=O)O)c(-c2cc(O)c(O)cc2C)c1 is ____.
// result 15.5

// query Fill in the blank: the reported IC50 of O=C1C[C@H](O)[C@@H]2c3c(ccc(O)c31)-c1ccc(O)c3c1[C@@]2(O)CCC3=O is ____.
// result 18.2

// query Fill in the blank: the reported IC50 of COc1cc(O)c2c(=O)oc3cc(O)cc(C)c3c2c1 is ____.
// result 7.71

----------
Biological target: Serine/threonine-protein kinase PLK4 (Homo sapiens)
Sequence (O00444 whole entry): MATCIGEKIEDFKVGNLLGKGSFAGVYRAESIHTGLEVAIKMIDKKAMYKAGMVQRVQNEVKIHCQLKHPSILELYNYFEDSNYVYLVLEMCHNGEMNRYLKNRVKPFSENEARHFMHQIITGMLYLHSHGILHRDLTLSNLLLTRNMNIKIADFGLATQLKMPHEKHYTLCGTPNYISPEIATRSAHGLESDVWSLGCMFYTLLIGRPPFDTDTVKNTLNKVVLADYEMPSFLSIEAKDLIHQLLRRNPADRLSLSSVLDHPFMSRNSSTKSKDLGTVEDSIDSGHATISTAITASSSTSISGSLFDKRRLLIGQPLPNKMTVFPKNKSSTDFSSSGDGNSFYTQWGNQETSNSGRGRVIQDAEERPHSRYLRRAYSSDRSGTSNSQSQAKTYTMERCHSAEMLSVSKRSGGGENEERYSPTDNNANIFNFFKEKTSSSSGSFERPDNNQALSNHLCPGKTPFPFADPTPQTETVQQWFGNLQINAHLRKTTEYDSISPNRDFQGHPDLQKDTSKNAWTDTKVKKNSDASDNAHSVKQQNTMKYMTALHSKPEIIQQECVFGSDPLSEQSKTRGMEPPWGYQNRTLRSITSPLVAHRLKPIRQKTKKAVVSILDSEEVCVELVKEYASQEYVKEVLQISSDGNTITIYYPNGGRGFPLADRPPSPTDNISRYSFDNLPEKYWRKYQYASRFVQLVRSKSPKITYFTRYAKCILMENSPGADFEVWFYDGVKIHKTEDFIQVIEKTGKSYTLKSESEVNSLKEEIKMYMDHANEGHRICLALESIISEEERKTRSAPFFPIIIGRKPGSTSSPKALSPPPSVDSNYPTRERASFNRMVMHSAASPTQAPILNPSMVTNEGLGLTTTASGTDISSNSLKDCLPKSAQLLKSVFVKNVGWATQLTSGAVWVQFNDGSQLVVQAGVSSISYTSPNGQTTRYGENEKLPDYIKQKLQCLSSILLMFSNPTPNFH
Assay: Inhibition of recombinant SAK
# IC50 annotations

>>> df
                                   compound          result
0    COc1cc(O)c2c(=O)oc3c(O)c(O)cc(C)c3c2c1  8.3 ×10⁻⁷ g/ml
1     COc1cc(O)c2c(c1)-c1cc(O)c(O)cc1COC2=O  > 1 ×10⁻⁵ g/ml
2  COc1cc(O)c2c(c1)C1(OC2=O)C(C)=CC(=O)C1O (stereo not given)  > 1 ×10⁻⁵ g/ml
3  Cc1cc(O)cc2oc(=O)c3c(O)cc(OS(=O)(=O)O)cc3c12  3.8 ×10⁻⁷ g/ml

// query Under Serine/threonine-protein kinase PLK4 (Homo sapiens): IC50 value of Cc1cc(O)cc2oc(=O)c3c(O)cc(O)cc3c12 ?
// result 9.6 ×10⁻⁷ g/ml
